experiment: in vitro; conditions: rat, gh3-tre-luc cells, AC50 (uM) modified / 1000
Counter-ions that a name gives are not always drawn.
Listed here: items and their measured CC50 at 24 h.

Look over these answered cases.
INSERT INTO assay_data (molecule, assayreadout, observedresult) VALUES
  ('NC1CCN(c2cccc(Cl)n2)CC1 [SR 57227A hydrochloride]', 'CC50 at 24 h', '24.7 µM'),
  ('COc1cccc(-c2ccc(/C=C\CN3CCCCCC3)cc2Cl)c1', 'CC50 at 24 h', '17.7 µM'),
  ('Cc1ccccc1OCC(O)CO (stereo not drawn)', 'CC50 at 24 h', '> 50 µM'),
  ('CCCOC(OCCC)OCCC [Tripropyl orthoformate]', 'CC50 at 24 h', '> 90 µM'),
  ('COC(C)(C)CCCC(C)CC=O (stereo not drawn)', 'CC50 at 24 h', '> 90 µM');

// next item, CC50 at 24 h requested
I have this molecule here, `C[C@]12CC[C@@H]3c4ccc(O)cc4CC[C@H]3[C@@H]1CC[C@H]2O` , and I need its recorded CC50 at 24 h.
> 90 µM

---

test: in vitro; settings: rat, gh3-tre-luc cells, AC50 (uM) modified / 1000
assayReadout: CC50 at 24 h

Look over these answered cases.
INSERT INTO results (compound, observedresult) VALUES
  ('OC[C@H]1O[C@@H](O[C@H]2[C@H](O)[C@@H](O)C(O)O[C@@H]2CO)[C@H](O)[C@@H](O)[C@@H]1O (some centres unmarked) [Cellobiose]', '> 50 µM'),
  ('N#Cc1c2ccccc2cc2ccccc12 [9-Cyanoanthracene]', '> 90 µM');

I have this compound here, C[N+]1(C)[C@@H]2C[C@@H](OC(=O)C(O)(c3cccs3)c3cccs3)C[C@H]1[C@@H]1O[C@@H]12 [Tiotropium bromide] , and I need its recorded CC50 at 24 h.
> 50 µM

I have this compound here, C1CCC(SSC2CCCCC2)CC1 [Dicyclohexyl disulfide] , and I need its recorded CC50 at 24 h.
> 90 µM

I have this compound here, O=C(OCc1ccccc1)c1ccccc1O [Benzyl salicylate] , and I need its recorded CC50 at 24 h.
> 90 µM

---

experiment: in vitro; settings: rat, gh3-tre-luc cells, AC50 (uM) modified / 1000
assayReadout: CC50 at 24 h

Look over these answered cases.
INSERT INTO assay_data (compound, assayreadout, observedresult) VALUES
  ('CCO[Si](CCCN)(OCC)OCC', 'CC50 at 24 h', '> 90 µM'),
  ('Cc1cc(C)cc(O)c1', 'CC50 at 24 h', '> 90 µM'),
  ('Sc1ccccc1', 'CC50 at 24 h', '> 90 µM');

I have this compound here, `CCCC[N+](C)(CCCC)CCCC` , and I need its recorded CC50 at 24 h.
> 90 µM

I have this compound here, `O=C1OC2(c3ccccc31)c1cc(I)c(O)c(I)c1Oc1c2cc(I)c(O)c1I` , and I need its recorded CC50 at 24 h.
16.4 µM

I have this compound here, `CC(=O)Nc1ccccc1C` , and I need its recorded CC50 at 24 h.
> 100 µM

I have this compound here, `O=Cc1ccc(Cl)c([N+](=O)[O-])c1` , and I need its recorded CC50 at 24 h.
> 90 µM

I have this compound here, `[H]/N=C(/N)NS(=O)(=O)c1ccc(N)cc1` , and I need its recorded CC50 at 24 h.
> 20 µM

I have this compound here, NS(=O)(=O)c1cc2c(cc1Cl)N=CNS2(=O)=O [Chlorothiazide] , and I need its recorded CC50 at 24 h.
> 90 µM

I have this compound here, `N=C1N=C(N)c2cc3ccccc3cc21` , and I need its recorded CC50 at 24 h.
39.2 µM

I have this compound here, `CC(=O)CC/C=C(\C)CC/C=C(\C)CC/C=C(\C)CCC=C(C)C` , and I need its recorded CC50 at 24 h.
> 50 µM

I have this compound here, CCOC(=O)c1ccccc1OC [Ethyl 2-methoxybenzoate] , and I need its recorded CC50 at 24 h.
> 90 µM

I have this compound here, CC(C)(C)C(O)(CCc1ccc(Cl)cc1)Cn1cncn1 (stereo not shown) , and I need its recorded CC50 at 24 h.
64.3 µM

I have this compound here, COC(=O)C1=C(C)NC(C)=C(C(=O)OCC(C)=O)C1c1ccccc1[N+](=O)[O-] (stereo not shown) , and I need its recorded CC50 at 24 h.
8.18 µM

I have this compound here, `C[C@]12C=CC(=O)C=C1CC[C@@H]1[C@@H]2[C@@H](O)C[C@@]2(C)[C@H]1CC[C@]2(O)C(=O)CO` , and I need its recorded CC50 at 24 h.
> 90 µM

I have this compound here, Clc1ccc(C(Cn2ccnc2)OCc2csc3c(Cl)cccc23)c(Cl)c1 (stereo not shown) [Sertaconazole nitrate] , and I need its recorded CC50 at 24 h.
18.4 µM

I have this compound here, `CCCCC[C@H](O)/C=C/[C@H]1[C@H](O)CC(=O)[C@@H]1CCCCCCC(=O)O` , and I need its recorded CC50 at 24 h.
> 20 µM

I have this compound here, CC(Oc1cccc(Cl)c1)C(=O)O (stereo not shown) , and I need its recorded CC50 at 24 h.
> 90 µM

I have this compound here, `O=C(CCc1ccc(O)cc1)c1c(O)cc(O)cc1O` , and I need its recorded CC50 at 24 h.
61.2 µM

I have this compound here, `CC1(C)CCC(NC(=O)[C@@H](N)CCC(=O)O)CC1` , and I need its recorded CC50 at 24 h.
> 50 µM

---

assay: in vitro; conditions: rat, gh3-tre-luc cells, AC50 (uM) modified / 1000
Structures can show the parent of a compound that is named as a salt.
Listed here: items and their measured CC50 at 24 h.

Look over these answered cases.
INSERT INTO assay_data (compound, assayreadout, observedresult) VALUES
  ('CN1CC[C@@]23CCCC[C@@H]2[C@@H]1Cc1ccc(O)cc13 [Dextrorphan tartrate]', 'CC50 at 24 h', '> 50 µM'),
  ('CC(=O)Oc1ccc(C2(c3ccc(OC(C)=O)cc3)Oc3ccccc3NC2=O)cc1 [Bisoxatin acetate]', 'CC50 at 24 h', '4.41 µM'),
  ('Oc1cc(O)cc(O)c1 [1,3,5-Trihydroxybenzene dihydrate]', 'CC50 at 24 h', '> 50 µM'),
  ('CC(CCC(=O)O)C(=O)O (stereo not drawn) [2-Methylpentanedioic acid]', 'CC50 at 24 h', '> 90 µM'),
  ('C=C(C)C(=O)OCCN(C)C [2-(Dimethylamino)ethyl methacrylate]', 'CC50 at 24 h', '> 90 µM');

// next item, CC50 at 24 h requested
I have this compound here, CC[N+](CC)(CC)CC [Tetraethylammonium chloride] , and I need its recorded CC50 at 24 h.
> 100 µM

---

assay: in vitro; details: rat, gh3-tre-luc cells, AC50 (uM) modified / 1000
Structures can show the parent of a compound that is named as a salt.
assayReadout: CC50 at 24 h

INSERT INTO measurements (compound, observedresult) VALUES
  ('OC[C@H]1O[C@@H]2O[C@H]3[C@H](O)[C@@H](O)[C@@H](O[C@H]4[C@H](O)[C@@H](O)[C@@H](O[C@H]5[C@H](O)[C@@H](O)[C@@H](O[C@H]6[C@H](O)[C@@H](O)[C@@H](O[C@H]7[C@H](O)[C@@H](O)[C@@H](O[C@H]8[C@H](O)[C@@H](O)[C@@H](O[C@H]1[C@H](O)[C@H]2O)O[C@@H]8CO)O[C@@H]7CO)O[C@@H]6CO)O[C@@H]5CO)O[C@@H]4CO)O[C@@H]3CO [beta-Cyclodextrin]', '> 90 µM'),
  ('CC1(C)CC(O)CC(C)(C)N1[O]', '> 90 µM'),
  ('O=C1c2ccccc2C(=O)c2ccccc21 [Anthraquinone]', '> 50 µM'),
  ('CCCC(=O)CC [3-Hexanone]', '> 90 µM'),
  ('CC(C=O)Cc1ccc(C(C)C)cc1 (stereo not shown) [Cyclamen aldehyde]', '> 90 µM');

I have this compound here, N#Cc1ccc(C(=O)O)cc1 [4-Cyanobenzoic acid] , and I need its recorded CC50 at 24 h.
> 90 µM

I have this compound here, CCCNC(C)C(=O)Nc1ccccc1C (stereo not shown) [Prilocaine hydrochloride] , and I need its recorded CC50 at 24 h.
> 50 µM

---

Listed here: items and their measured CC50 at 24 h.
assay: in vitro; conditions: rat, gh3-tre-luc cells, AC50 (uM) modified / 1000
Where a name gives a salt, the structure may show the parent alone.

I have this compound here, O=C1[C@H]2CCCC[C@H]2C(=O)N1CCCCN1CCN(c2nsc3ccccc23)CC1 [Perospirone hydrochloride] , and I need its recorded CC50 at 24 h.
21 µM

I have this compound here, `NCCN1CCNC1=O` , and I need its recorded CC50 at 24 h.
> 90 µM

I have this compound here, `O=C(O)c1ccc(Cl)cc1Cl` , and I need its recorded CC50 at 24 h.
> 90 µM

I have this compound here, `Oc1ccc(C(c2ccc(O)cc2)C(Cl)(Cl)Cl)cc1` , and I need its recorded CC50 at 24 h.
74.8 µM

I have this compound here, `CN(C)Cc1ccccc1O` , and I need its recorded CC50 at 24 h.
> 90 µM

I have this compound here, c1ccc2c(CC3=NCCN3)cccc2c1 [Naphazoline hydrochloride] , and I need its recorded CC50 at 24 h.
> 50 µM
